# experimentDescription: Plasma concentrations after oral dosing (solution in apple juice) of human volunteers, Example 1A
# Assay type: in vivo
# testSettings: human, plasma, po, 22.5 mg, subject 2 (76 kg); 22.5 mg oral; 1.5 h
resultType: concentration at 1.5 h (ng/mL)
The answer is to be given in ng/mL; state only the numeric part.

Data request: Please give the measured concentration at 1.5 h for this compound: COc1cc2c(cc1OC)[C@H]1C[C@@H](O)[C@H](CC(C)C)CN1CC2 [(+)-α-dihydrotetrabenazine]
Data returned: 36.2

====

# experimentDescription: Plasma concentrations after oral dosing (solution in apple juice) of human volunteers, Example 1A
# Assay type: in vivo
# testSettings: human, plasma, po, 22.5 mg, subject 6 (68 kg); 22.5 mg oral; 0.5 h
resultType: concentration at 0.5 h (ng/mL)
The answer is to be given in ng/mL; state only the numeric part.

Data request: Please give the measured concentration at 0.5 h for this compound: COc1cc2c(cc1OC)[C@H]1C[C@@H](O)[C@H](CC(C)C)CN1CC2 [(+)-α-dihydrotetrabenazine]
Data returned: 5.58
